From: the MegaScale stability set (Tsuboyama et al. 2023)

B1: HHH_rd1_0493 (parent)
chain: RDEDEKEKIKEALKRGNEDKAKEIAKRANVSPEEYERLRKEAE

Variants of: B1
protocol details: folding stability dG (cDNA display proteolysis); higher = more stable
experimental conditions: PBS, room temperature
Overview of recorded folding stability dG for various variants
Express it in kcal/mol; write the number only.

Observe how each entry below is paired with its result.
folding stability dG for `K6A` ?
2.57

folding stability dG for `L38M` ?
2.26

folding stability dG for `E18W` ?
2.62

folding stability dG for `A12V` ?
1.06

folding stability dG for `E33T` ?
2.33

folding stability dG for `R1P` ?
3.19

Continuing:
folding stability dG for `A12W` ?
3.01

folding stability dG for `Y35C` ?
0.708

folding stability dG for `K26V` ?
2.73

folding stability dG for `I24A` ?
1.47

folding stability dG for `K22G` ?
1.64
